molecular target: human GPR84 receptor (Homo sapiens); construct: host or cells: HEK293 cells, transient transfection; test: Gαi biosensor BRET assay in transfected HEK293 cells (antagonism of GPR84 agonist ZQ-16); format: cell-based; settings: HEK293, single concentration, code F = 10 μM, 200 nmol/L ZQ-16
Sequence (Q9NQS5 whole entry): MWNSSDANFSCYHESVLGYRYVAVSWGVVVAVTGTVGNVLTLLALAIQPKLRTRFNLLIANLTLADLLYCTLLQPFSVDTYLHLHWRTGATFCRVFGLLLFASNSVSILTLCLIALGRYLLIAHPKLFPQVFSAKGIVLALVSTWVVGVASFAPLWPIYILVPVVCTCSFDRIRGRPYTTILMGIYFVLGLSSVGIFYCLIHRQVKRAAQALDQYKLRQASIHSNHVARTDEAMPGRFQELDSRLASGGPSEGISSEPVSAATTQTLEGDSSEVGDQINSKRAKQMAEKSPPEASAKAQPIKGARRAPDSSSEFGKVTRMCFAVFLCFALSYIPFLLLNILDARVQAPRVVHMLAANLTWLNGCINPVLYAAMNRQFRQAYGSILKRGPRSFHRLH
// reported inhibition at 10 µM per item
measure: inhibition at 10 µM

| molecule smiles | measure | endpoint result |
| --- | --- | --- |
| CN(C)c1ccc(C#CC2CC2)cc1NC(=O)c1cn(CC2OCC3(CC3)CO2)nn1 | inhibition at 10 µM | ≤ 25% |
| CCc1ccc(C#CC2CC2)cc1NC(=O)c1cn(CC2OCC3(CC3)CO2)nn1 | inhibition at 10 µM | ≤ 25% |
| Cc1cc(C#CC2CC2)ccc1N(C)C1(c2cn(CC3OCC4(CC4)CO3)nn2)COC1 | inhibition at 10 µM | > 75% |
| Cc1ccc(C#CC2CC2)cc1N(C)C(=O)c1ccc(=O)n(CC(=O)N(C)C)c1C | inhibition at 10 µM | ≤ 25% |
| Cc1c(N(C)C(=O)c2cccc(C#CC3CC3)c2)nnn1CC1OCC2(CC2)CO1 | inhibition at 10 µM | ≤ 25% |
| Cc1c(NC(=O)c2ccc(C#CC3CC3)cc2)nnn1CC1OCC2(CC2)CO1 | inhibition at 10 µM | ≤ 25% |
| Cc1ccc(C#CC2CC2)cc1CN(C)c1cn(CC2OCC3(CC3)CO2)nn1 | inhibition at 10 µM | 25 to 50% |
| CN(Cc1ccc(C#CC2CC2)cc1C1CC1)c1cn(CC2OCC3(CC3)CO2)nn1 | inhibition at 10 µM | > 75% |
